Tested on: LXRb:RXRa (NR concentration 270 nM, RXRa partner concentration 90 nM)
method-description: PBM binding z-score (relative to random genomic background probes); higher = stronger binding; sequences stand for … in GC…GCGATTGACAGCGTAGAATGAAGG
Tag: 1.0 if measured PBM binding z-score is not below 1, 0.0 if it is.

Solved cases below.
residue_sequence=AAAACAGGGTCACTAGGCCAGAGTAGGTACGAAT class_label=1.0
residue_sequence=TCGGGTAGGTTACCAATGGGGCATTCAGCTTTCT class_label=1.0
residue_sequence=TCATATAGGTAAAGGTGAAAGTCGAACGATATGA class_label=1.0
residue_sequence=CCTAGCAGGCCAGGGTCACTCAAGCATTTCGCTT class_label=1.0
residue_sequence=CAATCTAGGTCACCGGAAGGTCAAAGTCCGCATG class_label=1.0
residue_sequence=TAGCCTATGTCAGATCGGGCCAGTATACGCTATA class_label=0.0
residue_sequence=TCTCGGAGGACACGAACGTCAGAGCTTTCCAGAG class_label=0.0
residue_sequence=AATACAGGGTCATCGTATGCCAGAGTACGCACAG class_label=1.0
residue_sequence=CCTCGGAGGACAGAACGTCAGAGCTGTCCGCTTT class_label=0.0
residue_sequence=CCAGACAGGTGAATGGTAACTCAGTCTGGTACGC class_label=0.0

Data request: Identify whether the reported PBM binding z-score of the following sequence is 1 or greater: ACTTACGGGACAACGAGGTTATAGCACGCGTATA
Data returned: 0.0

Data request: Identify whether the reported PBM binding z-score of the following sequence is 1 or greater: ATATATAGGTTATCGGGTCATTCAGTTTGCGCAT
Data returned: 1.0
